biological target: RBP4 (Homo sapiens (Human), UniProt P02753)
Readout Kind: IC50

[Q] Find IC50 (RBP4 (Homo sapiens (Human), UniProt P02753)) for the entry `COC(=O)N1CCc2[nH]nc(C(=O)N3CCC(c4cccc(F)c4C(F)(F)F)CC3)c2C1`
[A] < 1.37 nM
